# Subject Of Test: purified recombinant human BTK protein (Homo sapiens (Human))
# Sequence (Q06187 whole entry): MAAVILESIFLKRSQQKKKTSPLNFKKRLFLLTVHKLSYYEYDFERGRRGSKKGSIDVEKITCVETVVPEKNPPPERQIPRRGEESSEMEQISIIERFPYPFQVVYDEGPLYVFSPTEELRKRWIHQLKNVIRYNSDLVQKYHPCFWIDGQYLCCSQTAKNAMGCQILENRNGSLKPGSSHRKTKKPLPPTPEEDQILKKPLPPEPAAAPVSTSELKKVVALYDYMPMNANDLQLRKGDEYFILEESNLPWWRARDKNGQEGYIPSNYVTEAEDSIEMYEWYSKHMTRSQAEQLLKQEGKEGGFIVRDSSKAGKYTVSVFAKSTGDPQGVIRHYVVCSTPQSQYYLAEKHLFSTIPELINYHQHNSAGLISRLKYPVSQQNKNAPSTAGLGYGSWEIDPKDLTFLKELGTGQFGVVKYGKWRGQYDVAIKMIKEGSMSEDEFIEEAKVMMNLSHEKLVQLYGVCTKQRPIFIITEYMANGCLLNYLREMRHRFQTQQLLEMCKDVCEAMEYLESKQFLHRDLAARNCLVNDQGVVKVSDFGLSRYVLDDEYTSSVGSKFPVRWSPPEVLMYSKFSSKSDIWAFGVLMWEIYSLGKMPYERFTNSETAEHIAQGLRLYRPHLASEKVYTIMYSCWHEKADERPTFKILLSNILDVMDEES
# Assay Info: Measurement of BTK inhibitory activity (in vitro)
# Protocol Conditions: FL-PEPTIDE 2 substrate 1 μM, ATP 45 μM, 40 minutes at 25° C.
pIC50 values for the molecules below.
Recall that pIC50 is obtained by taking minus log10 of the concentration measured in molar.

INSERT INTO results (molecule, subject_of_test, quantity_name, data_value) VALUES
  ('C=CC(=O)N1CC(n2cc(C(=O)Nc3nc4cc(Cl)ccc4o3)c3c(N)ncnc32)C1 [Example 46]', 'purified recombinant human BTK protein (Homo sapiens (Human))', 'pIC50', 8.49);

Input C=CC(=O)N1CCC[C@@H](n2nc(C(=O)Nc3nc4cc(Br)ccc4o3)c3c(N)ncnc32)C1 [Example 2] , output reported pIC50.
9.33

Input Nc1ncnc2c1c(C(=O)Nc1nc3cc(-c4ccccc4)ccc3o1)cn2[C@@H]1CCN(C(=O)/C=C/CN2CCCC2)C1 [Example 60] , output reported pIC50.
8.73

Input C=CC(=O)N1CCC(Cn2nc(C(=O)Nc3nc4ccccc4o3)c3c(N)ncnc32)C1 (centres unmarked) [Example 66] , output reported pIC50.
7.77
